- target_desc: SEP3 (…3);AG (AGAMOUS) (Arabidopsis thaliana;Arabidopsis …, UniProt O22456;P17839 1-251;1-252, |)
- Sequence (O22456 whole entry, chain 1 of 2): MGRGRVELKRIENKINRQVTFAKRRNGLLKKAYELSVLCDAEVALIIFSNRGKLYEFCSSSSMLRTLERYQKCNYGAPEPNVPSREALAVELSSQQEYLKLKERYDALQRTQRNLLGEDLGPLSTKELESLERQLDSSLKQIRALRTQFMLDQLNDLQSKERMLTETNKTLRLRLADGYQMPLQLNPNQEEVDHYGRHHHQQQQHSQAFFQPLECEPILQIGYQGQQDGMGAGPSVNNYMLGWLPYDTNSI
- Sequence (P17839 whole entry, chain 2 of 2): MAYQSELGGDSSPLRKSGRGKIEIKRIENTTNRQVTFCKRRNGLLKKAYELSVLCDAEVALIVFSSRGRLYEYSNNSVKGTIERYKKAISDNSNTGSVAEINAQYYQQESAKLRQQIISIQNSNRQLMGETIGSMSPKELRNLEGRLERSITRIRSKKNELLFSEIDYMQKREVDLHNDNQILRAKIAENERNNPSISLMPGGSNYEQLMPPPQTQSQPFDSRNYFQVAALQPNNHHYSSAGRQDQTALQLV
- test_description: EMSA; tetramer; EMSA as in the authors' ref. 20 (buffer, salt, pH, temperature not given); Cy5 probes; unpurified wheat germ TnT proteins
- experimental_conditions: protein: ivt;ivt; tags: C-terminal 3xFLAG;C-terminal 5xMyc; copies: 1;1; label: Cy5; blunt
endpoint_name: binding result

KNU WT (dsDNA) DNA 1: GGTAAGAGAAACATAGAAACCTTCCATGTTTGGCAATTTCATCTTGGAACTTGATTCACTCTCTCTTGTCTTCTTTGTGCATCACAAGAACAACAA DNA 2: TTGTTGTTCTTGTGATGCACAAAGAAGACAAGAGAGAGTGAATCAAGTTCCAAGATGAAATTGCCAAACATGGAAGGTTTCTATGTTTCTCTTACC = binds
KNU -10 (96 bp) (dsDNA) DNA 1: GAAAGAGGGTAAGAGAAACATAGAAACCTTCCATGTTTGGCAATTTCATCTTGGACTCTCTCTTGTCTTCTTTGTGCATCACAAGAACAACAAATA DNA 2: TATTTGTTGTTCTTGTGATGCACAAAGAAGACAAGAGAGAGTCCAAGATGAAATTGCCAAACATGGAAGGTTTCTATGTTTCTCTTACCCTCTTTC = binds
KNU +10 probe (106 bp) (dsDNA) DNA 1: GGTAAGAGAAACATAGAAACCTTCCATGTTTGGCAATTTCATCTTGGAAGTCAGTAGCTCTTGATTCACTCTCTCTTGTCTTCTTTGTGCATCACAAGAACAACAA DNA 2: TTGTTGTTCTTGTGATGCACAAAGAAGACAAGAGAGAGTGAATCAAGAGCTACTGACTTCCAAGATGAAATTGCCAAACATGGAAGGTTTCTATGTTTCTCTTACC = binds
